Data provenance: patent US9902696B2

So I've got a bunch of compounds here, and I need their pIC50 values.
Target: recombinant human baculovirus-expressed GST-tagged FASN (Homo sapiens, UniProt P49327)
Construct: GST
Sequence (P49327 whole entry): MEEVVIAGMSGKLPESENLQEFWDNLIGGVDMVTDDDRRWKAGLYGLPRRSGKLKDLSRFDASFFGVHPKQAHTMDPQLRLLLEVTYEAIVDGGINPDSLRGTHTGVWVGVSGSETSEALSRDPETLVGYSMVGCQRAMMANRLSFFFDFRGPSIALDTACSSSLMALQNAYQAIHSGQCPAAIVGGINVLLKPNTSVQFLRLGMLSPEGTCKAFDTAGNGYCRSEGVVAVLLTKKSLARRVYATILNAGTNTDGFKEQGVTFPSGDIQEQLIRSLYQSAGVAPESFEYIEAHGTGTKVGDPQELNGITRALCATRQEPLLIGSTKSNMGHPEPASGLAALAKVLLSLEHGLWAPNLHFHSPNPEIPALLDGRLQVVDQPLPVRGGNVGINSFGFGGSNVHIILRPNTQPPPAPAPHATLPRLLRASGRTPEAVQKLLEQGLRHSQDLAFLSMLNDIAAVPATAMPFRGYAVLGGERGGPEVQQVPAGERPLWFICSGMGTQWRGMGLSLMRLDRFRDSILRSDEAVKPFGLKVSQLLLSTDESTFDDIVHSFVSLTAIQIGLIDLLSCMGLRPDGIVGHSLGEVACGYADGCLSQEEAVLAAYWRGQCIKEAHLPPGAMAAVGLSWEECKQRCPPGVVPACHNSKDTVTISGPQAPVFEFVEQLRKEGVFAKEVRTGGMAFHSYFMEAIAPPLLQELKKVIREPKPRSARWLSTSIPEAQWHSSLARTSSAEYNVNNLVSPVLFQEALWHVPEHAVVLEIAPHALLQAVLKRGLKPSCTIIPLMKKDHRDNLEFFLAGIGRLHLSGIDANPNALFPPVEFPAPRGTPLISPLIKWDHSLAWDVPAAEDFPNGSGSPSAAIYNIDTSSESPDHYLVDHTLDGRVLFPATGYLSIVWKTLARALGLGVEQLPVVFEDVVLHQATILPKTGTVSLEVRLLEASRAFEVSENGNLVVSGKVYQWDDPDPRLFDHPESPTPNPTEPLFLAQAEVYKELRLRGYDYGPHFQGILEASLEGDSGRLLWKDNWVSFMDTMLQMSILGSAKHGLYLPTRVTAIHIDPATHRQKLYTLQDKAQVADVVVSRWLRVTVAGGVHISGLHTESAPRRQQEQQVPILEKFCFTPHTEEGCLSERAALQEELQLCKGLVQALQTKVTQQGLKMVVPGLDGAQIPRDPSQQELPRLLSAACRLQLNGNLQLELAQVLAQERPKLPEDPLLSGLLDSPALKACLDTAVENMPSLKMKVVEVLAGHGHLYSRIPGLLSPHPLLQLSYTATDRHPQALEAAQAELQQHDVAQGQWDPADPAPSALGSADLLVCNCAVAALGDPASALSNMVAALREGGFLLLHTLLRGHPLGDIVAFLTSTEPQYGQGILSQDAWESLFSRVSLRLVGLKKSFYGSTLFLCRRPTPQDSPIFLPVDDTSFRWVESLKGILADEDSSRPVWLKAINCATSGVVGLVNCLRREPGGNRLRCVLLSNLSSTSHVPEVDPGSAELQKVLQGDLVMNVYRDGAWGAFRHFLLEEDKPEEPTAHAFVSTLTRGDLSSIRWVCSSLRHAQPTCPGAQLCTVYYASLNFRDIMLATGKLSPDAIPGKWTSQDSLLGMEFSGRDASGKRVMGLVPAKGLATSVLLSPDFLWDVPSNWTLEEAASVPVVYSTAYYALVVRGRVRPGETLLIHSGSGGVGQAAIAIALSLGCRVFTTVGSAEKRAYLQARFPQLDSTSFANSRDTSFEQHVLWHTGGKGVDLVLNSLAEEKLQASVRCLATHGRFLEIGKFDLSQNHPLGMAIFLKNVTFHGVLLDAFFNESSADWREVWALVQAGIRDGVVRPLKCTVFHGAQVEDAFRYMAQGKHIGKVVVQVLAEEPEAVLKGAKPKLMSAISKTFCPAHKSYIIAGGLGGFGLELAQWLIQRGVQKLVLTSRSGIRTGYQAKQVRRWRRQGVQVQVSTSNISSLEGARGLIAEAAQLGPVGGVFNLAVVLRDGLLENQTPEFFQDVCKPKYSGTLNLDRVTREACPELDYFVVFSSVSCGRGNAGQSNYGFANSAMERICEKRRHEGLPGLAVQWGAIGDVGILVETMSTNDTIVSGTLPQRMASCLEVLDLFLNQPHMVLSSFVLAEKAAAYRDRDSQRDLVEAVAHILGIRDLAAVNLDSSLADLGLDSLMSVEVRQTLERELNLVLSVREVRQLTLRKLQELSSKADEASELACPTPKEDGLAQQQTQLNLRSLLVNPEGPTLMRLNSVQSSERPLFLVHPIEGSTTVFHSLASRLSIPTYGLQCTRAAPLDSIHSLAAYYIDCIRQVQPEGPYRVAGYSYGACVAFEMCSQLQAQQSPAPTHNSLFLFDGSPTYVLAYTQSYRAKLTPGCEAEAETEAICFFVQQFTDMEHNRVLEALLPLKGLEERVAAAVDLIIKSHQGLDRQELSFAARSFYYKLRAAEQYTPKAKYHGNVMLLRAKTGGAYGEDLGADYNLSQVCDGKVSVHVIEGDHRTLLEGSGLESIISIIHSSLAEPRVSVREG
Experiment: FASN enzyme activity assay, fluorescence-based detection of CoA with CPM
Format: biochemical
Details: 5 nM FASN, 150 μM NADPH, 10 μM acetyl-CoA, 25 μM malonyl-CoA, 90 minutes incubation; read-out: IC50 data for Additional Compounds of Formulae I-V(a): Activity
pIC50: −log10 of the molar value.

Known pIC50 results, listed for orientation:
{"compound": "Cc1c(-c2ccc(OC3CCN(C(=O)NCCc4c[nH]cn4)CC3)cc2)ccc2cccnc12", "pIC50": "5.00 to 6.00"}
{"compound": "CC(C)ONC(=O)N1CCC(Oc2ccc(-c3ccc4nccn4c3Cl)cc2)CC1", "pIC50": "6.00 to 7.00"}
{"compound": "CC(C)NC(=O)N1CCC(Oc2ccc(-c3ccc4nccn4c3Cl)cc2)CC1", "pIC50": "7.00 to 9.00"}
{"compound": "Cc1c(-c2ccc(OC3CCN(C(=O)[C@H](C)N)CC3)cc2)ccc2cccnc12", "pIC50": "7.00 to 9.00"}
{"compound": "CCNC(=O)N1CCC(Oc2ccc(-c3ccc4nccn4c3C)cc2)CC1", "pIC50": "7.00 to 9.00"}
{"compound": "CCCCNC(=O)N1CCC(Oc2ccc(-c3ccc4nccn4c3Cl)cc2)CC1", "pIC50": "7.00 to 9.00"}

Look at each compound and report its pIC50.
1. CCONC(=O)N1CCC(Oc2ccc(-c3ccc4nccn4c3Cl)cc2)CC1
2. Cc1c(-c2ccc(OC3CCN(C(=O)[C@@H]4CCCN4C)CC3)cc2)ccc2cccnc12
3. Cc1c(-c2ccc(OC3CCN(C(=O)OC4CCOC4)CC3)cc2)ccc2cccnc12 (stereo not shown)
4. CCCONC(=O)N1CCC(Oc2ccc(-c3ccc4nccn4c3C)cc2)CC1
5. Cc1c(-c2ccc(OC3CCN(C(=O)CN)CC3)cc2)ccc2cccnc12

Result string:
["5.00 to 6.00", "5.00 to 6.00", "7.00 to 9.00", "5.00 to 6.00", "7.00 to 9.00"]
